- study.system: Nuclear receptor subfamily 1 group I member 2 (Homo sapiens)
- Sequence (O75469 whole entry): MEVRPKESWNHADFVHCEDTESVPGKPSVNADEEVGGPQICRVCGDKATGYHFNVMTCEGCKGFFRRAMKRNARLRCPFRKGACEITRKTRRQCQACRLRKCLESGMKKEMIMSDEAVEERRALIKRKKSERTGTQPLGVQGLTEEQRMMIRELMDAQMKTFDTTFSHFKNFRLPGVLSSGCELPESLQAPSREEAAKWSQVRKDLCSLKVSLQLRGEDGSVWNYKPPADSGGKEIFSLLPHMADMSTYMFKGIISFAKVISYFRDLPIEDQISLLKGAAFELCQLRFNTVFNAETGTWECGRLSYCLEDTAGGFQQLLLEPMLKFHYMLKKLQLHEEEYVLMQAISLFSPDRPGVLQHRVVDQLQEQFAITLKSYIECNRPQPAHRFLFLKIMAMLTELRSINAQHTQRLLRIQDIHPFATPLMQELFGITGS
- assay.notes: Displacement of BODIPY FL vindoline from GST-tagged human PXR LBD incubated for 60 mins by TR-FRET assay
result.type: IC50 (µM)

Illustrative cases are given below, each with its answer.
COc1cc(-n2nnc(S(=O)(=O)c3ccc(C(C)(C)C)cc3)c2C)c(OC)cc1Cl :: 0.9
COc1cc(-n2nnc(S(=O)(=O)c3ccc(C(C)(C)C)cc3)c2C)c(OC)cc1C(C)=O :: 0.9
CCc1cc(OC)c(-n2nnc(S(=O)(=O)c3ccc(C(C)(C)C)cc3)c2C)cc1C :: 1
COc1ccc([C@@H](C)O)cc1-n1nnc(S(=O)(=O)c2ccc(C(C)(C)C)cc2)c1C :: 1.1

[1] COc1ccc(C(N)=O)cc1-n1nnc(S(=O)(=O)c2ccc(C(C)(C)C)cc2)c1C
[2] COc1cc(C#N)c(Cl)cc1-n1nnc(S(=O)(=O)c2ccc(C(C)(C)C)cc2)c1C
[3] COc1ccc(C)cc1-c1nc(C)c(S(=O)(=O)c2ccc(C(C)(C)C)cc2)n1C
[4] COc1ccc(OC)c(-n2nnc(S(=O)(=O)c3ccc(C(C)(C)C)cc3)c2N)c1
Data request: Sort the compounds on IC50; start with the lowest figure. Order the labels as requested and list them.
Data returned: 4, 3, 2, 1
(4: 0.18 µM, 3: 0.4 µM, 2: 0.6 µM, 1: 1.1 µM)

###

- study.system: PXR (NR1I2) (Homo sapiens, UniProt O75469)
- Sequence (O75469 whole entry): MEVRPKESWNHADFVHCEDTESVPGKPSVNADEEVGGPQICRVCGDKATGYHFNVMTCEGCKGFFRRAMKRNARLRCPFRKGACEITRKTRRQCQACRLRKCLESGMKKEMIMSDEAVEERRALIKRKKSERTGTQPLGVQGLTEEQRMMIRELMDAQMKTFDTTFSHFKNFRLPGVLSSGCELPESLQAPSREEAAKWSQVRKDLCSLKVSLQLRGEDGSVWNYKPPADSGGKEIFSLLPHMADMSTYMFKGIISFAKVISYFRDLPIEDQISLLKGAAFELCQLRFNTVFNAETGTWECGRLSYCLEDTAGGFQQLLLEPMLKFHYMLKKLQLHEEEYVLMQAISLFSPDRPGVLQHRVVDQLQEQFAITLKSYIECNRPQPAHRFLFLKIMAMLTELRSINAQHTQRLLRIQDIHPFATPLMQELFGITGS
- assay.notes: Agonist activity at human PXR expressed in HepG2 cells co-expressing luciferase gene under control of CYP3A4 promoter at 10 uM incubated for 24 hrs by luciferase reporter assay relative to control
result.type: activity at 24 h, 10 µM (%)

Illustrative cases are given below, each with its answer.
COc1ccc(OC)c(-n2nnc(S(=O)(=O)c3ccc(C(C)(C)C)cc3)c2N)c1 :: 53
COc1cc(Br)c(Cl)cc1-n1nnc(S(=O)(=O)c2ccc(C(C)(C)C)cc2)c1C :: 26
CCc1cc(OC)c(-n2nnc(S(=O)(=O)c3ccc(C(C)(C)C)cc3)c2C)cc1OC :: 125
COc1ccc(S(=O)(=O)c2nnn(-c3cc(OC)ccc3OC)c2C)cc1 :: 83
CCc1cc(OC)c(-n2nnc(S(=O)(=O)c3ccc(C(C)(C)C)cc3)c2C)cc1Cl :: 58
COC(=O)c1cc(OC)c(-n2nnc(S(=O)(=O)c3ccc(C(C)(C)C)cc3)c2C)cc1Cl :: 62
COc1ccc(Cl)cc1-n1nnc(S(=O)(=O)c2ccc(C(C)(C)C)cc2)c1N :: 42
COc1cc(C)c(Cl)cc1-n1nnc(S(=O)(=O)c2ccc(C(C)(C)C)cc2)c1C :: 33
COc1ccc(OC)c(-n2nnc(S(=O)(=O)c3ccc(C(C)(C)C)cc3)c2C#N)c1 :: 88
COc1cc(-n2nnc(S(=O)(=O)c3ccc(C(C)(C)C)cc3)c2C)c(OC)cc1C(C)C :: 110

[a] COc1ccc(C)cc1-c1nc(C)c(S(=O)(=O)c2ccc(C(C)(C)C)cc2)n1C
[b] COc1ccc(C)cc1-n1nnc(S(=O)(=O)c2ccc(C(C)(C)C)cc2)c1C#N
[c] COc1ccc(OC)c(-n2cc(S(=O)(=O)c3ccc(C(C)(C)C)cc3)nn2)c1
[d] COc1cc(C#N)c(C)cc1-n1nnc(S(=O)(=O)c2ccc(C(C)(C)C)cc2)c1C
Data request: Please list the entries, largest activity at 24 h, 10 µM first. Order the labels as requested and list them.
Data returned: b, a, d, c

[P] COc1cc(C(C)C)c(C)cc1-n1nnc(S(=O)(=O)c2ccc(C(C)(C)C)cc2)c1C
[Q] COc1ccc(C)cc1-c1ncc(S(=O)(=O)c2ccc(C(C)(C)C)cc2)n1C
Data request: For P and Q , which recorded activity at 24 h, 10 µM is lower? Field: selected label. Fill in the label of the entry you choose.
Data returned: Q

Values compiled from ChEMBL document CHEMBL4834393.
